# Tested on: P. aeruginosa ATCC 27853 LMG 16217
# method: microbe, parasite or virus in culture
# Format: cell-based
# condition.info: Pseudomonas aeruginosa, negative control = 100, read-out: % of growth at 25 PPM compared to negative control, P. aeruginosa ATCC 27853 LMG 16217
readout: activity at 25 ppm
Field: value (include unit after the number)

Reference set (7 entries):
compound="CC(C)[Si]1(C(C)C)OC[C@H]2OC(c3ccccc3)C[C@@H]2O[Si](C(C)C)(C(C)C)O1 (some centres unmarked)" assayed_target="P. aeruginosa ATCC 27853 LMG 16217" readout="activity at 25 ppm" measured=92%
compound=CO[C@@H]1[C@@H]2O[Si](C(C)C)(C(C)C)O[Si](C(C)C)(C(C)C)OC[C@H]2O[C@H]1c1ccccc1 assayed_target="P. aeruginosa ATCC 27853 LMG 16217" readout="activity at 25 ppm" measured=87.6%
compound=CC(=O)OC[C@H]1O[C@@H](c2ccccc2)C[C@@H]1OC(C)=O assayed_target="P. aeruginosa ATCC 27853 LMG 16217" readout="activity at 25 ppm" measured=92.7%
compound=CO[C@@H]1[C@H](O)[C@@H](CO)O[C@H]1c1ccccc1 assayed_target="P. aeruginosa ATCC 27853 LMG 16217" readout="activity at 25 ppm" measured=93.5%
compound=OC[C@H]1O[C@@H](c2ccccc2)[C@H](O)[C@@H]1O assayed_target="P. aeruginosa ATCC 27853 LMG 16217" readout="activity at 25 ppm" measured=92.7%
compound=CO[C@@H]1[C@@H]2O[C@H](c3ccccc3)OC[C@H]2O[C@H]1c1ccccc1 assayed_target="P. aeruginosa ATCC 27853 LMG 16217" readout="activity at 25 ppm" measured=91%
compound=OC[C@H]1O[C@@H](c2ccccc2)C[C@@H]1O assayed_target="P. aeruginosa ATCC 27853 LMG 16217" readout="activity at 25 ppm" measured=92.7%

Request: Look up activity at 25 ppm with P. aeruginosa ATCC 27853 LMG 16217 for this compound: CC1(C)O[C@H]2O[C@H](COCc3ccccc3)[C@H](OCc3ccccc3)[C@H]2O1
Result: 93%

###

# System: CMV David Strain
# method: CMV plaque formation in HEL cells, David strain
# Assay type: cell-based, human Cytomegalovirus
# condition.info: Human betaherpesvirus 5, virus plaque formation, virus input 100 PFU
readout: IC50

Reference set (5 entries):
molecule=CO[C@@H]1[C@@H]2O[Si](C(C)C)(C(C)C)O[Si](C(C)C)(C(C)C)OC[C@H]2O[C@H]1c1ccccc1 readout=IC50 measured="1.3 µg/mL"
molecule=OC[C@H]1O[C@@H](c2ccccc2)[C@H](O)[C@@H]1O readout=IC50 measured="> 50 µg/mL"
molecule=CO[C@@H]1[C@H](O)[C@@H](CO)O[C@H]1c1ccccc1 readout=IC50 measured="> 50 µg/mL"
molecule=OC[C@H]1O[C@@H](c2ccccc2)C[C@@H]1O readout=IC50 measured="> 100 µg/mL"
molecule=CC1(C)O[C@H]2O[C@H](COCc3ccccc3)[C@H](OCc3ccccc3)[C@H]2O1 readout=IC50 measured="7.6 µg/mL"

Turning now to a further record.
Request: Look up IC50 with CMV David Strain for this molecule: CC(=O)OC[C@H]1O[C@@H](c2ccccc2)C[C@@H]1OC(C)=O
Result: > 100 µg/mL
